- System: HLA-A*24 (human)
- Test description: UV-exchange b2m ELISA
Quantity name: peptide exchange yield

> print(dat)
      binder   measured
1  VHIPEVYLI  50 to 75%
2  LYLDKATLI  50 to 75%
3  GFFIFNERF  50 to 75%
4  LYITEPKTI  50 to 75%
5  IYTMIYRNL      > 75%

In: Query: peptide exchange yield; subject: RYPDNLKHLYL
Out: > 75%

In: And the next one, IYQLDTASI ?
Out: 50 to 75%

In: And the next one, QYLGQIQHI ?
Out: 50 to 75%

In: And the next one, KYQDILETI ?
Out: > 75%

In: And the next one, VYVGGGQIIHL ?
Out: 50 to 75%

In: And the next one, VYPWLGALL ?
Out: > 75%
